Measured % KD, listed per entry.
Test system: Bach1 mRNA
ASSAY_INFO: Initial screen: Bach1 mRNA knock-down in human A549 cells (96-well transfection, quantitative RT-PCR)
Type: cell-based
CONDITION_SUMMARY: Bach1 mRNA, 10 nM siNA, human A549 cells, n = 2, mean ± S.D., normalized to GAPDH and non-targeting control, 24 hrs post-transfection
[invAb] = inverted abasic unit; m = 2'-O-methyl; r = 2'-OH (RNA); f = 2'-fluoro
Reply numerically in %, unit not repeated.

{"SUBSTANCE": "29969-DC: Bach1 siNA duplex, target site 1790 (mouse); sense B GAuuuccAAuccuuGuuGA TTB (SEQ 87); antisense UCAAcAAGGAuuGGAAAucUU (SEQ 88) (sense GAUUUCCAAUCCUUGUUGATT; antisense UCAACAAGGAUUGGAAAUCUU; sense: DNA at AGT, 2'-fluoro at CU, [invAb] at 5' end, 3' end, backbone not given here; antisense: sugars from the 5' end rrrmfmmmmmffmmmmmffmm, backbone not given here)", "SUBJECT_OF_TEST": "Bach1 mRNA", "MEASURED_VALUE": 36}
{"SUBSTANCE": "29982-DC: Bach1 siNA duplex, target site 1752 (mouse); sense B cAuucAAuGcccAAcGGAu TTB (SEQ 113); antisense AUCcGuuGGGcAuuGAAuGUU (SEQ 114) (sense CAUUCAAUGCCCAACGGAUTT; antisense AUCCGUUGGGCAUUGAAUGUU; sense: DNA at AGT, 2'-fluoro at CU, [invAb] at 5' end, 3' end, backbone not given here; antisense: sugars from the 5' end rrrfmffmmmfmffmmmfmmm, backbone not given here)", "SUBJECT_OF_TEST": "Bach1 mRNA", "MEASURED_VALUE": "−9.2"}

Field % KD (entry 29961-DC (sense CUACACUGCUAAACUGAUUTT; antisense AAUCAGUUUAGCAGUGUAGUU; inverted abasic end caps, TT overhangs, modified nucleotides, further chemistry not given here) ) reads 90

====

Test system: Bach1 mRNA
ASSAY_INFO: Bach1 mRNA knockdown and potency in human bronchial epithelial cells (NHBE)
Format: cell-based
CONDITION_SUMMARY: Bach1 mRNA knockdown, 48 hours post transfection, mean of 3 donors
REPORTED_ENDPOINT: EC50 (nM)
Express your answer in nM, writing the number without its unit.

Please review the following examples before continuing.
{"SUBSTANCE": "29961-DC (sense CUACACUGCUAAACUGAUUTT; antisense AAUCAGUUUAGCAGUGUAGUU; inverted abasic end caps, TT overhangs, modified nucleotides, further chemistry not given here)", "UNIT_ABBREVIATION": "nM", "MEASURED_VALUE": 7.87}
{"SUBSTANCE": "29984-DC (sense GUUAAAGGAUUUGAACCUUTT; antisense AAGGUUCAAAUCCUUUAACUU; inverted abasic end caps, TT overhangs, modified nucleotides, further chemistry not given here)", "UNIT_ABBREVIATION": "nM", "MEASURED_VALUE": 23.2}
{"SUBSTANCE": "29964-DC (sense GAUUUGCAGGUGAUGUUAATT; antisense UUAACAUCACCUGCAAAUCUU; inverted abasic end caps, TT overhangs, modified nucleotides, further chemistry not given here)", "UNIT_ABBREVIATION": "nM", "MEASURED_VALUE": 9.52}
{"SUBSTANCE": "29988-DC (sense AUUUGAACCUUUAAUUCAGTT; antisense CUGAAUUAAAGGUUCAAAUUU; inverted abasic end caps, TT overhangs, modified nucleotides, further chemistry not given here)", "UNIT_ABBREVIATION": "nM", "MEASURED_VALUE": 3.84}

What the record says about 29947-DC (sense GGAAUCCUGCUUUCAGUUUTT; antisense AAACUGAAAGCAGGAUUCCUU; inverted abasic caps (B), 2'-modified nucleotides, further chemistry not given here) : EC50 is 4.31

====

Tested on: Bach1 mRNA
ASSAY_INFO: Initial screen: Bach1 mRNA knock-down in mouse NIH 3T3 cells (96-well transfection, quantitative RT-PCR)
Format: cell-based
CONDITION_SUMMARY: mouse NIH3T3 cells, n = 2, 24 hrs post-transfection, protocol 10 nM siNA
[invAb] = inverted abasic unit; m = 2'-O-methyl; r = 2'-OH (RNA); f = 2'-fluoro
REPORTED_ENDPOINT: % KD (%)
Numbers only; they are read as %.

{"SUBSTANCE": "29973-DC: Bach1 siNA duplex, target site 1780 (mouse); sense B cucAcGAAAuGAuuuccAA TTB (SEQ 95); antisense UUGGAAAucAuuucGuGAGUU (SEQ 96) (sense CUCACGAAAUGAUUUCCAATT; antisense UUGGAAAUCAUUUCGUGAGUU; sense: DNA at AGT, 2'-fluoro at CU, [invAb] at 5' end, 3' end, backbone not given here; antisense: sugars from the 5' end rrrmmmmffmffffmfmmmmm, backbone not given here)", "UNIT_ABBREVIATION": "%", "% KD": 76.4}

So for 29956-DC (sense GUCUGAGUGUCCGUGGUUATT; antisense UAACCACGGACACUCAGACUU; inverted abasic caps (B), 2'-modified nucleotides, further chemistry not given here) , the logged % KD turned out to be −14.5

====

Listed below: % KD values for each entry.
Tested on: Bach1 mRNA
ASSAY_INFO: Initial screen: Bach1 mRNA knock-down in human A549 cells (96-well transfection, quantitative RT-PCR)
Assay type: cell-based
CONDITION_SUMMARY: Bach1 mRNA, 10 nM siNA, human A549 cells, n = 2, mean ± S.D., normalized to GAPDH and non-targeting control, 24 hrs post-transfection
[invAb] = inverted abasic unit; d = 2'-deoxy (DNA); m = 2'-O-methyl; r = 2'-OH (RNA); f = 2'-fluoro
Could you give me the number in %? Just the number is fine.

{"SUBSTANCE": "29951-DC: Bach1 siNA duplex, target site 1162; sense B GccuuuGucAGGuAcAGAc TTB (SEQ 51); antisense GUCuGuAccuGAcAAAGGcUU (SEQ 52) (sense GCCUUUGUCAGGUACAGACTT; antisense GUCUGUACCUGACAAAGGCUU; sense: DNA at AGT, 2'-fluoro at CU, [invAb] at 5' end, 3' end, backbone not given here; antisense: sugars from the 5' end rrrfmfmfffmmfmmmmmfmm, backbone not given here)", "% KD / %": 39}
{"SUBSTANCE": "29984-DC (sense GUUAAAGGAUUUGAACCUUTT; antisense AAGGUUCAAAUCCUUUAACUU; inverted abasic end caps, TT overhangs, modified nucleotides, further chemistry not given here)", "% KD / %": 66.2}
{"SUBSTANCE": "29972-DC: Bach1 siNA duplex, target site 1262 (mouse); sense B GAuuuAuAucuGAAGucuA TTB (SEQ 93); antisense UAGAcuucAGAuAuAAAucUU (SEQ 94) (sense GAUUUAUAUCUGAAGUCUATT; antisense UAGACUUCAGAUAUAAAUCUU; sense: DNA at AGT, 2'-fluoro at CU, [invAb] at 5' end, 3' end, backbone not given here; antisense: sugars from the 5' end rrrmffffmmmfmfmmmffmm, backbone not given here)", "% KD / %": "−3.3"}

# % KD (substance: 29988-DC (sense AUUUGAACCUUUAAUUCAGTT; antisense CUGAAUUAAAGGUUCAAAUUU; inverted abasic end caps, TT overhangs, modified nucleotides, further chemistry not given here) ) is 86.2

# % KD (substance: 29985-DC: Bach1 siNA duplex, target site 1312; sense B AGGcuucuGGAGuGAcAuu TTB (SEQ 119); antisense AAUGucAcuccAGAAGccuUU (SEQ 120) (sense AGGCUUCUGGAGUGACAUUTT; antisense AAUGUCACUCCAGAAGCCUUU; sense: sugars from the 5' end dddfffffddddfrdfdffdd, [invAb] at 5' end, 3' end, backbone not given here; antisense: sugars from the 5' end rrrmffmffffmmmmmfffmm, backbone not given here) ) is 18.6

====

Tested on: Bach1 mRNA
ASSAY_INFO: Initial screen: Bach1 mRNA knock-down in mouse NIH 3T3 cells (96-well transfection, quantitative RT-PCR)
Type: cell-based
CONDITION_SUMMARY: mouse NIH3T3 cells, n = 2, 24 hrs post-transfection, protocol 10 nM siNA
[invAb] = inverted abasic unit; m = 2'-O-methyl; r = 2'-OH (RNA); f = 2'-fluoro
// reported % KD per item
# output: bare number, implied unit %

{"SUBSTANCE": "29948-DC: Bach1 siNA duplex, target site 1285; sense B GcGAGAAGuGGcAGAAcAc TTB (SEQ 45); antisense GUGuucuGccACuuCuCGcUU (SEQ 46) (sense GCGAGAAGUGGCAGAACACTT; antisense GUGUUCUGCCACUUCUCGCUU; sense: DNA at AGT, 2'-fluoro at CU, [invAb] at 5' end, 3' end, backbone not given here; antisense: sugars from the 5' end rrrffffmffmmffmfmmfmm, backbone not given here)", "MEASURED_VALUE": "−16.3"}

Consider now this further substance.
Form field, % KD with Bach1 mRNA, item 29987-DC: Bach1 siNA duplex, target site 1313; sense B GGcuucuGGAGuGAcAuuu TTB (SEQ 123); antisense AAAuGucAcuccAGAAGccUU (SEQ 124) (sense GGCUUCUGGAGUGACAUUUTT; antisense AAAUGUCACUCCAGAAGCCUU; sense: DNA at AGT, 2'-fluoro at CU, [invAb] at 5' end, 3' end, backbone not given here; antisense: sugars from the 5' end rrrfmffmffffmmmmmffmm, backbone not given here) : −16.1
